Where do these numbers come from? They come from ChEMBL document CHEMBL3745656.

# method.description: in vivo
# measurement.parameters: mouse, brain, po, 10 mg/kg
# Description: Drug level in mouse brain at 10 mg/kg, po after 8 hrs
metric.name: concentration at 8 h (nM)
State just the number; it will be interpreted in nM.

Tell me the measured concentration at 8 h of CCc1cc2c(cc1-c1cnn(CC(=O)N(C)C)c1)C(C)(C)c1[nH]c3cc(C#N)ccc3c1C2=O , please.
4

====

# method.description: Plasma concentration in mouse at 2 mg/kg, iv after 8 hrs
# Type: ADME, organism-based
metric.name: concentration at 8 h (nM)
Field: numeric (nM). Do not append units.

# input molecule: CCc1cc2c(cc1-c1cnn(CCCN(C)C)c1)C(C)(C)c1[nH]c3cc(C#N)ccc3c1C2=O ; wanted: its concentration at 8 h
50
